- Tested on: PC-3 prostate
- Protocol Summary: NCI tumour cell line growth inhibition, 48 h
Measurement Label: TGI (µM)
// return numeric value only (unit: µM, not printed)

Study these solved cases before continuing.
Specify TGI for COc1ccc(/C=C(/c2ccccc2)[N+](=O)[O-])cc1 and stop.
3.21

Specify TGI for C/C(=N\NC(=S)N1CC2CCC(CC2)C1)c1ccccn1 and stop.
1.75

Specify TGI for COc1ccc2c(c1)C(C)Cc1c(ncnc1-n1cnc3cc(C)ccc31)N2C (stereo not given) and stop.
21

Next up:
Specify TGI for C=C1C(=O)OC2/C=C(/C)C3(O)OC(C)(CC(OC(=O)C(C)C)C12)CC3OC(C)=O (stereo not given) and stop.
62.9

====

- System: 786-0 renal
- Protocol Summary: NCI tumour cell line growth inhibition, 48 h
# maps each entry to its TGI

Recall the reported TGI of C=C1CC[C@@H](C(C)C)C[C@@H]2[C@H]([C@H](O)C[C@]2(C)O)[C@@]2(C)CC[C@@H]1O2 on 786-0 renal and write it down.
33.4 µM

Recall the reported TGI of C[C@]1(S(=O)(=O)c2ccccc2)C[C@H]2N(Cc3ccccc3)[C@@H]1CCC21OCCO1 on 786-0 renal and write it down.
> 100 µM

Recall the reported TGI of CCN(CC)CCNC(=O)c1ccc(C)c(OCc2ccccc2)c1[N+](=O)[O-] on 786-0 renal and write it down.
> 74.6 µM

Recall the reported TGI of [F][Sn]([F])([c]1ccccc1)[c]1ccccc1 on 786-0 renal and write it down.
2.98 µM

Recall the reported TGI of CC(C)(C)OC(=O)n1c(-c2ccccc2F)cc(=O)c2cc3c(cc21)OCO3 on 786-0 renal and write it down.
> 44.3 µM

Recall the reported TGI of O=C1C(Cl)=C(Nc2ccccc2O)C(=O)N1Cc1ccccc1 on 786-0 renal and write it down.
30.4 µM

Recall the reported TGI of CC1(C)[C@@H](Cn2cnc3c(Cl)nc(N)nc32)CC[C@@]1(C)CO on 786-0 renal and write it down.
> 100 µM

Recall the reported TGI of CCOC(=O)C(C)c1nc2c(Cl)c3ncccc3cc2[nH]c1=O (stereo not given) on 786-0 renal and write it down.
> 100 µM

Recall the reported TGI of Nc1ccc2nc3n(c2c1)C(=O)c1ccccc1-3 on 786-0 renal and write it down.
> 100 µM

Recall the reported TGI of Cc1cccc(C(C)C)c1NC(=O)C(=O)C(C(=O)c1ccccc1F)C1OC(=O)c2ccccc21 (stereo not given) on 786-0 renal and write it down.
36.6 µM

====

# maps each entry to its TGI
- Tested on: HCC-2998 colon
- Protocol Summary: NCI tumour cell line growth inhibition, 48 h

Study these solved cases before continuing.
Specify TGI for Cc1ccc(S(=O)(=O)NC(=O)NC2=NC(C)(C)N(c3ccc(Cl)c(Cl)c3)C(N)=N2)cc1 and stop.
> 100 µM

Specify TGI for Clc1ccc(Cl)c(SCCCN2CCNCC2)c1 and stop.
12.8 µM

Specify TGI for CC(C)(C)OC(=O)N1N=NC2C1C1CC(OCc3ccccc3)(OCc3ccccc3)C2O1 (stereo not given) and stop.
> 100 µM

More entries:
Specify TGI for O=C(Nc1ccc(-n2cc(-c3ccncc3)c(-c3ccc(O)c(Cl)c3)n2)cc1)Nc1cccc(Cl)c1Cl and stop.
> 32.5 µM

Specify TGI for O=C1C(Cl)=C(Nc2ccccc2O)C(=O)N1Cc1ccccc1 and stop.
35.3 µM

Specify TGI for COC1=C(Br)C(=O)c2nc(C)ccc2C1=O and stop.
32.2 µM

Specify TGI for C/C(CCn1[nH]c(=O)ccc1=O)=N\OCCCc1ccccc1 and stop.
> 100 µM
